Exercise: for every item that follows, state its recorded Root Growth.
# Tested on: maize (Zea mays, variety “LORENZO”)
# Assay protocol: Root growth assay, maize seed treatment
# Assay type: in vivo
# Experimental context: 100 g a.i./ha, Root Growth of 100 is set as the standard, wet root weight 16 days post treatment
One number for each entry.

I'm hoping you can list Root Growth for every molecule here, please.
1. O=C1CCC(=NNc2cc(Cl)cc(Cl)c2)c2cc(Br)ccc2N1 [Compound 4.1]
2. O=C1CCC(=O)c2cc(Cl)ccc2N1 [Compound 3.4]
3. COc1cc2c(cc1OC)C(=O)CCC(=O)N2 [Compound 3.2]

136
144
123

Please supply the value of reported Root Growth for the item O=C1CCC(=O)c2ccccc2N1 [Compound 3.1]
86

###

# Tested on: wheat (Triticum aestivum, variety “TRISO”)
# Assay protocol: Root growth assay, wheat seed treatment
# Type: in vivo
# Experimental context: 10 g a.i./ha, Root Growth of 100 is set as the standard, wet root weight 16 days post treatment
Exercise: for every item that follows, state its recorded Root Growth.
Answers are plain numbers.

Guide cases for Root Growth, answers given:
                                   compound   value_type  observed_measurement
0  O=C1CCC(=O)c2cc(Cl)ccc2N1 [Compound 3.4]  Root Growth                   126
1  CCNC(=S)NN=C1CCC(=O)Nc2cc(OC)c(OC)cc21 [Compound 4.5]  Root Growth                   106

Could you tell me Root Growth for each of these compounds? They are listed below.
1. O=C1CCC(=O)c2ccccc2N1 [Compound 3.1]
2. COc1cc2c(cc1OC)C(=O)CCC(=O)N2 [Compound 3.2]

1. 125
2. 131

###

# System: wheat (Triticum aestivum, variety “TRISO”)
# Assay protocol: Root growth assay, wheat seed treatment
# Format: in vivo
# Experimental context: 1 g a.i./ha, Root Growth of 100 is set as the standard, wet root weight 16 days post treatment
Value type: Root Growth
Answers are plain numbers.

Examples with their reported Root Growth follow.
>>> df
                         structure_smiles  observed_measurement
0  CCNC(=S)NN=C1CCC(=O)Nc2cc(OC)c(OC)cc21                   149
1           COc1cc2c(cc1OC)C(=O)CCC(=O)N2                   133
2                   O=C1CCC(=O)c2ccccc2N1                    98

Moving on to another compound below.
Write down the reported Root Growth (system: wheat (Triticum aestivum, variety “TRISO”)) of `O=C1CCC(=O)c2cc(Cl)ccc2N1`
125

###

Please go through the items and note down their Root Growth.
# Test system: wheat (Triticum aestivum, variety “TRISO”)
# Assay protocol: Root growth assay, wheat seed treatment
# Assay type: in vivo
# Experimental context: 100 g a.i./ha, Root Growth of 100 is set as the standard, wet root weight 16 days post treatment
Numbers only.

Recorded results for 2 compounds are shown here.
>>> df
                                   compound   value_type  observed_measurement
0  O=C1CCC(=O)c2cc(Cl)ccc2N1 [Compound 3.4]  Root Growth                   195
1      O=C1CCC(=O)c2ccccc2N1 [Compound 3.1]  Root Growth                   135

Please go through the list and note Root Growth for each compound.
1. COc1cc2c(cc1OC)C(=O)CCC(=O)N2 [Compound 3.2]
2. CCNC(=S)NN=C1CCC(=O)Nc2cc(OC)c(OC)cc21 [Compound 4.5]

1: 98; 2: 79

###

What Root Growth was measured for each of the following?
# System: maize (Zea mays, variety “LORENZO”)
# Assay protocol: Root growth assay, maize seed treatment
# Format: in vivo
# Experimental context: 10 g a.i./ha, Root Growth of 100 is set as the standard, wet root weight 16 days post treatment
Answers are plain numbers.

Kindly give each listed record's Root Growth.
1. O=C1CCC(=NNc2cc(Cl)cc(Cl)c2)c2cc(Br)ccc2N1
2. O=C1CCC(=O)c2ccccc2N1
3. COc1cc2c(cc1OC)C(=O)CCC(=O)N2
4. O=C1CCC(=O)c2cc(Cl)ccc2N1

1: 102; 2: 150; 3: 89; 4: 121
